We begin with a simple list: items and their reported pIC50.
molecular target: HDAC6 (Homo sapiens, UniProt Q9UBN7); construct: BC069243; Cat. #50006) is full-length with N-terminal GST tag; GST (N); purchased BPS Biosciences 50006; host or cells: baculovirus infected Sf9 cells; assay: HDAC enzyme activity assay (fluorogenic substrate), HDAC6; type: biochemical; conditions: recombinant enzyme; read-out: HDAC6 inhibition (IC50)
Sequence (Q9UBN7 whole entry): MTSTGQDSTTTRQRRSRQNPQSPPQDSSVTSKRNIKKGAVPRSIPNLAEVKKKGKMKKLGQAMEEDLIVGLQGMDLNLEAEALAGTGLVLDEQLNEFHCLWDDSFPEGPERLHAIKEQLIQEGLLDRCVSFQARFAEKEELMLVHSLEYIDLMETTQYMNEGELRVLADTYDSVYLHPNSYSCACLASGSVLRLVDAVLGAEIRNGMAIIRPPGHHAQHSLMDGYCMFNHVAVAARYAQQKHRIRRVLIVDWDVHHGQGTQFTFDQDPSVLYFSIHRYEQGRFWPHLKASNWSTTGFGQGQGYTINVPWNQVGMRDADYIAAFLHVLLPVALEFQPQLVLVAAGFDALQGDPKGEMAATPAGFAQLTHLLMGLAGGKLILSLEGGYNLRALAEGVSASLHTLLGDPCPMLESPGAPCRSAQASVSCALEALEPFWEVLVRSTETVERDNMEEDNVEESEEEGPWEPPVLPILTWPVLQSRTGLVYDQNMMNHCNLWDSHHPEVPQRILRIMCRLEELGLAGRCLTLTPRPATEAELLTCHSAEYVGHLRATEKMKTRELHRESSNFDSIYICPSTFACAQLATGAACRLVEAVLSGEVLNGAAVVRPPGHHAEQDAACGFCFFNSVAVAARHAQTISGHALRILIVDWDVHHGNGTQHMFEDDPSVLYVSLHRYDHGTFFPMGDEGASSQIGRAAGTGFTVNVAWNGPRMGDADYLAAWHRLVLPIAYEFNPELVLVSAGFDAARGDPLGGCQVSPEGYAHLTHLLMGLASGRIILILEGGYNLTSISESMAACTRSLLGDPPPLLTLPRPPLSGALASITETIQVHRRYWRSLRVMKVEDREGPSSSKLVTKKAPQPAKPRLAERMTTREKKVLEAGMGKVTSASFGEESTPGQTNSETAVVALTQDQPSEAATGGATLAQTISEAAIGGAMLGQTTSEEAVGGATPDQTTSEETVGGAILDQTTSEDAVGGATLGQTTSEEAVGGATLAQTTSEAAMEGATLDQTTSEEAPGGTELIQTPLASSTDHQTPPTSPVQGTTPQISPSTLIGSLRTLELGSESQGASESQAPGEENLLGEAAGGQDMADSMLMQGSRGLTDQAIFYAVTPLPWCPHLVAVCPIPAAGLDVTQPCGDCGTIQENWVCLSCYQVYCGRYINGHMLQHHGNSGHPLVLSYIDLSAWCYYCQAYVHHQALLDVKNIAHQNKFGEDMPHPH
pIC50: −log10 of the molar value.

compound: CCCc1nn(C)c2c(=O)[nH]c(-c3cc(Cc4ccc(C(=O)NO)c(F)c4)ccc3OCC)nc12 [Example 1-66]
target_or_test_system: HDAC6 (Homo sapiens, UniProt Q9UBN7)
pIC50: 6.00 to 8.00

compound: CC(c1nc2c(cnn2C2CCOCC2)c(=O)[nH]1)N1CC(Cc2ccc(C(=O)NO)s2)C1 (stereo not shown) [Example 3-16]
target_or_test_system: HDAC6 (Homo sapiens, UniProt Q9UBN7)
pIC50: 5.00 to 6.00

compound: CCCc1nn(C)c2c(=O)[nH]c(-c3cc(CC4CCN(C(=O)NO)CC4)ccc3OCC)nc12 [Example 1-49]
target_or_test_system: HDAC6 (Homo sapiens, UniProt Q9UBN7)
pIC50: 5.00 to 6.00

compound: CCCc1nn(C)c2c(=O)[nH]c(-c3cc(CCC(=O)NO)ccc3OCC)nc12 [Example 1-31]
target_or_test_system: HDAC6 (Homo sapiens, UniProt Q9UBN7)
pIC50: 5.00 to 6.00

----------
In this section, each of the compounds is paired with its reported IC50.
target: HDAC6 (Homo sapiens, UniProt Q9UBN7); construct: BC069243; Cat. #50006) is full-length with N-terminal GST tag; GST (N); purchased BPS Biosciences 50006; host or cells: baculovirus infected Sf9 cells; assay: HDAC enzyme activity assay (fluorogenic substrate), HDAC6; assay type: biochemical; settings: recombinant enzyme; read-out: HDAC6 inhibition (IC50)

compound: C[C@H]1CN(Cc2ccc(C(=O)NO)cc2)C[C@@H]1c1nc2c(cnn2C2CCOCC2)c(=O)[nH]1 (racemic)
IC50: 10 to 1000 nM
//
compound: CCCc1nn(C)c2c(=O)[nH]c(-c3cc(Cc4ccc(C(=O)NO)o4)ccc3OCC)nc12
IC50: 10 to 1000 nM
//
compound: CCCc1nn(C)c2c(=O)[nH]c(-c3cc(N4CCC5(CCC(C(=O)NO)C5)CC4)ccc3OCC)nc12 (stereo not drawn)
IC50: 1000 to 10000 nM
//
compound: CCCc1nn(C)c2c(=O)[nH]c(-c3cc(Oc4ccc(C(=O)NO)cc4)ccc3OCC)nc12
IC50: 10 to 1000 nM
//
compound: CCCc1nn(C)c2c(=O)[nH]c(-c3cc(C(OC)c4ccc(C(=O)NO)cc4)ccc3OCC)nc12 (stereo not drawn)
IC50: 10 to 1000 nM
//
compound: CCCc1nn(C)c2c(=O)[nH]c(-c3cc(-c4ccc(C(=O)NO)cc4)ccc3OCC)nc12
IC50: 10 to 1000 nM
//
compound: CCCc1nn(C)c2c(=O)[nH]c(-c3cc(CN4CCN(c5ncc(C(=O)NO)cn5)CC4)ccc3OCC)nc12
IC50: 10 to 1000 nM
//
compound: CCCc1nn(C)c2c(=O)[nH]c(-c3cc(C4CC(C(=O)NO)C4)ccc3OCC)nc12 (racemic) [Example 1-82]
IC50: 10 to 1000 nM
//
compound: CC(c1nc2c(cnn2C2CCOCC2)c(=O)[nH]1)N1CC(Oc2ccc(C(=O)NO)cc2)C1 (stereo not drawn)
IC50: 10 to 1000 nM
//
compound: CCCc1nc(C)c2c(=O)[nH]c(-c3cc(C4CCC(C(=O)NO)CC4)ccc3OCC)nn12 (stereo not drawn) [Example 2-13]
IC50: 10 to 1000 nM
//
compound: CCCc1nn(C)c2c(=O)[nH]c(-c3cc(N4CCC(C(=O)NO)CC4)ccc3OCC)nc12
IC50: 1000 to 10000 nM
//
compound: CCCc1nn(C)c2c(=O)[nH]c(-c3cc(N4CCC5(CCN(c6ncc(C(=O)NO)cn6)CC5)C4)ccc3OCC)nc12
IC50: 1000 to 10000 nM
//
compound: CCCc1nn(C)c2c(=O)[nH]c(-c3cc(CC4CCN(c5ccc(C(=O)NO)cn5)CC4)ccc3OCC)nc12
IC50: 10 to 1000 nM
//
compound: CCCc1nn(C)c2c(=O)[nH]c(-c3cc(C4CCC(C(=O)NO)CC4)ccc3OCC)nc12 (racemic) [Example 1-75]
IC50: 1000 to 10000 nM
//
compound: CCCc1nn(C)c2c(=O)[nH]c(-c3cc(C4CC(C(=O)NO)C4)ccc3OCC)nc12 (stereo not drawn) [Example 1-85]
IC50: 10 to 1000 nM
